Would you mind telling me the reported IC50 of each entry?
# Test system: MCF7
# Protocol notes: Cytotoxicity against human MCF7 cells assessed as reduction in cell viability by MTT assay
# Type: functional, cell-based
# Condition parameters: Homo sapiens, MCF7; read-out: IC50

Parameter requested: IC50. Apply to each item below.
1. CCCCCCCCCCCC(=O)OC[C@H](CO[C@@H]1O[C@H](CO)[C@@H](O)[C@H](O)[C@H]1O)OC(=O)CCCCCCCCCCC
2. CCCCCCCC/C=C\CCCCCCCC(=O)O[C@H](COC(=O)CCCCCCCC1CC1CCCCCCCC)CO[C@@H]1O[C@H](COC(C)=O)[C@@H](OC(C)=O)[C@H](OC(C)=O)[C@H]1OC(C)=O (stereo partly drawn)
3. CCCCCCCC/C=C\CCCCCCCC(=O)O[C@H](COC(=O)CCCCCCCC1CC1CCCCCCCC)CO[C@@H]1O[C@H](CO)[C@@H](O)[C@H](O)[C@H]1O (stereo partly drawn)

Ans:
1. 32.6 µM
2. 94.2 µM
3. 38.2 µM
